Taken from ChEMBL document CHEMBL1152582.

EXPERIMENT DESCRIPTION: physchem
EXPERIMENTAL SETUP: buffer, pH 7.4
Description: Lipophilicity, log D at pH 7.4
VALUE KIND: logD

{"columns": ["STRUCTURE", "RECORDED NUMBER"],
 "data": [
  ["O=C1O[C@]2(CC[C@H](C(=O)Nc3ccn(-c4ccccc4)n3)CC2)c2cccnc21", 2.8],
  ["O=C1O[C@]2(CC[C@H](C(=O)Nc3cnc(-c4ccccc4)cn3)CC2)c2cccnc21", 3.1],
  ["O=C1O[C@]2(CC[C@H](C(=O)Nc3ccn(-c4ccccc4F)n3)CC2)c2cnccc21", 3.2],
  ["O=C1O[C@]2(CC[C@H](C(=O)Nc3cnc(-c4ccccc4)cn3)CC2)c2cnccc21", 3.39],
  ["O=C1O[C@]2(CC[C@H](C(=O)Nc3ccn(-c4ccccc4)n3)CC2)c2cnccc21", 3.1],
  ["O=C1O[C@]2(CC[C@H](C(=O)Nc3cnn(-c4ccccc4)n3)CC2)c2cnccc21", 3.4],
  ["O=C1O[C@]2(CC[C@H](C(=O)Nc3cnn(-c4ccccc4)c3)CC2)c2cccnc21", 2.9],
  ["O=C1O[C@]2(CC[C@H](C(=O)Nc3ccn(-c4cccc(F)c4)n3)CC2)c2cnccc21", 3.4],
  ["O=C1O[C@]2(CC[C@H](C(=O)Nc3cc(-c4ccccc4)[nH]n3)CC2)c2cnccc21", 3.16],
  ["O=C1O[C@]2(CC[C@H](C(=O)Nc3cc(-c4ccccc4)on3)CC2)c2ncccc21", 3.7],
  ["O=C1O[C@]2(CC[C@H](C(=O)Nc3ccn(-c4ccc(F)cc4)n3)CC2)c2cnccc21", 3.2]
]}
